# Tested on: PRKACA-PRKAR2A interaction (SmBiT-PRKACA / LgBiT-PRKAR2A), protein kinase A
# Design: NanoLuc complementation counter-screen in cell extract, PRKACA with PRKAR2A, loss of luminescence, detects NanoLuc interference
# measurementContext: counter-screen for NanoLuc interference; 0.5 h, 20 µM; inhibitor
Where a name gives a salt, the structure may show the parent alone.
// label = Criterion met if Inh (PKA) is not less than 20%, otherwise Criterion not met

Study these solved cases before continuing.
- O=C1[C@@H]2[C@H]3CC[C@H](C3)[C@@H]2C(=O)N1C[C@@H]1CCCC[C@H]1CN1CCN(c2nsc3ccccc23)CC1 [UM0142271:01, Lurasidone HCl]: Criterion not met
- Cc1ccc(C(=O)Nc2ccc(CN3CCN(C)CC3)c(C(F)(F)F)c2)cc1C#Cc1cnc2[nH]ncc2c1: Criterion not met
- Cc1cccc(Nc2cc(Cl)nc(SCC(=O)O)n2)c1C: Criterion met

As a next step, examine the compound that follows.
**Q:** Could you please find out whether `CC(C)n1c(/C=C/[C@H](O)C[C@H](O)CC(=O)O)c(-c2ccc(F)cc2)c2ccccc21` has Inh (PKA) that meets 20% or exceeds it?
**A:** Criterion not met

* * *

# Test system: PRKACA-PRKAR2A interaction (SmBiT-PRKACA / LgBiT-PRKAR2A), protein kinase A
# Set-up: NanoLuc complementation counter-screen in cell extract, PRKACA with PRKAR2A, loss of luminescence, detects NanoLuc interference
# measurementContext: counter-screen for NanoLuc interference; 0.5 h, 20 µM; inhibitor
Where a name gives a salt, the structure may show the parent alone.
// label = 1 (yes) if Inh (PKA) is not less than 4%, otherwise 0 (no)

**Q:** Could you please find out whether Nc1c2c(nc3ccccc13)CCCC2 [UM0118625:03, Tacrine hydrochloride] has Inh (PKA) that meets 4% or exceeds it?
**A:** 0 (no)

* * *

I'd appreciate it if you could supply Inhibition percent values for the items below.
# targetDesc: MeCP2-TBL1 interaction (MeCP2-SmBiT / TBL1-LgBiT) (Mus musculus, UniProt Q9QXE7)
# Construct: expressed in transfected cells; crude lysate used as a cell-free assay
# Sequence (Q9QXE7 166-527): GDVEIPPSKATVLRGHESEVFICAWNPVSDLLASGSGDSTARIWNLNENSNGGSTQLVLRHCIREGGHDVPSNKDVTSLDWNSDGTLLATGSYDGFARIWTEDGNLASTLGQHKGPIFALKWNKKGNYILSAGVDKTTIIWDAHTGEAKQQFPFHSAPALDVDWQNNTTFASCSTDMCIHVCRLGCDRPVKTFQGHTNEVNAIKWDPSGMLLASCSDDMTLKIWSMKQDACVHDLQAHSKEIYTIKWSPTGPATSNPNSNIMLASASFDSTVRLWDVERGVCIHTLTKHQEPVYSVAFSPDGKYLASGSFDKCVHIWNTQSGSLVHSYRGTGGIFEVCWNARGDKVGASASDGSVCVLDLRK
# assayNotes: MeCP2-TBL1 NanoLuc luciferase complementation assay (cell-free, extracts of transfected HEK293 cells);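 further: each compound tested at 20 µM final concentration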
# Type: binding, human
# measurementContext: primary screen of the Asinex library, sheet "Sargen output Asinex library", one well per compound, Batch Ref. 1
Write your answer as a measured quantity: the number, then the unit.

Study these solved cases before continuing.
* COc1cccc(-c2cc(C(=O)N3[C@H]4CCC[C@H]5N(C)[C@@H](Cc6ccccc6)[C@@H]3C[C@@]45C)[nH]n2)c1 | 8.58%
* C[C@@]12C[C@H]3[C@@H](Cc4ccccc4)N[C@@H]1CCCC[C@@H]2N3C(=O)CNC(=O)c1cncc(O)c1 | 0.85%
* COc1cccc2c1OC1(CCN(C(=O)C(C)(C)OC)CC1)[C@H]1CCCO[C@H]21 | -2.85%

# map each molecule to its Inhibition percent
1. O=C(NCCC1CCCCN1C(=O)CCN1C(=O)COc2ccc(Cl)cc21)c1ccccc1 (stereo not shown)
2. O=C(Cn1cc(C(=O)NC2CCCCC2)ccc1=O)NCC1(c2ccccc2Cl)CC1
3. COc1ccccc1Cc1cc(C(=O)N2CCC(c3nccnc3-c3nc(C)c[nH]3)CC2)ccn1
4. CC(C)CCC[C@]1(C)Oc2ccccc2[C@H]2OCC3(CCCN3)C[C@@H]21 (stereo partly shown)

**A:**
-0.39%
4.99%
6.35%
1.89%

* * *

I'd appreciate it if you could supply Inh (PKA) values for the items below.
# Test system: PRKACA-PRKAR2A interaction (SmBiT-PRKACA / LgBiT-PRKAR2A), protein kinase A
# Parameters: NanoLuc complementation counter-screen in cell extract, PRKACA with PRKAR2A, loss of luminescence, detects NanoLuc interference
# measurementContext: counter-screen for NanoLuc interference; 0.5 h, 20 µM; inhibitor
Structures can show the parent of a compound that is named as a salt. Peptide text beside a SMILES is read from it. * marks the point of attachment. Cbz = O=C(OCc1ccccc1)*; CH2F = FC*
Numbers only, in %.

Study these solved cases before continuing.
- COCCCOc1ccnc(C[S+]([O-])c2nc3ccccc3[nH]2)c1C (stereo not shown): 0.62
- CC(C)N(CCC(=O)c1ccc2ccccc2c1)Cc1ccccc1 [UM0120052:04, ZM 39923 HCl]: 18.59
- COC(=O)C[C@H](NC(=O)[C@H](CCSC)NC(=O)[C@H](CCC(N)=O)NC(=O)[C@H](CC(=O)OC)NC(=O)OCc1ccccc1)C(=O)CF [UM0141428:01, Z-DQMD-FMK] (Cbz-D(OMe)QMD(OMe)-CH2F): 1.642
- Nc1ccc2cc3ccc(N)cc3nc2c1 [UM0142377:01, Proflavine Hemisulfate]: 0.7107

# map each compound to its Inh (PKA)
1. Cn1cc(-c2cnn3c(N)c(Br)c([C@@H]4CCCNC4)nc23)cn1 [UM0142059:01, MK-8776 (SCH-900776)]
2. Cc1cc(N2CCOCC2)cc2[nH]c(-c3c(NC[C@@H](O)c4cccc(Cl)c4)cc[nH]c3=O)nc12
3. CN1C(=O)c2sccc2N(C)c2nc(Nc3ccc(S(N)(=O)=O)cc3)ncc21

**A:**
4.838
41.39
6.005

* * *

# Tested on: PRKACA-PRKAR2A interaction (SmBiT-PRKACA / LgBiT-PRKAR2A), protein kinase A
# Design: NanoLuc complementation counter-screen in cell extract, PRKACA with PRKAR2A, loss of luminescence, detects NanoLuc interference
# measurementContext: counter-screen for NanoLuc interference; 0.5 h, 20 µM; inhibitor
// label = satisfied if Inh (PKA) is not less than 10%, otherwise not satisfied

Study these solved cases before continuing.
- C/C(=C\C(=O)Nc1ccccc1C(=O)O)c1ccc2ccccc2c1: satisfied
- CC(C)c1nc(CN(C)C(=O)N[C@@H](CCN2CCOCC2)C(=O)N[C@H](CC[C@H](Cc2ccccc2)NC(=O)OCc2cncs2)Cc2ccccc2)cs1 [UM0141776:01, Cobicistat (GS-9350)]: not satisfied
- C[N+]1(C)[C@@H]2C[C@@H](OC(=O)[C@H](CO)c3ccccc3)C[C@H]1[C@@H]1O[C@@H]12: not satisfied
- CC1(C)Cc2c(-c3ccccc3)c(-c3ccc(Cl)cc3)c(CC(=O)O)n2C1: satisfied
- COc1cc([C@@H]2c3cc4c(cc3[C@@H](O[C@@H]3O[C@@H]5CO[C@@H](C)O[C@H]5[C@H](O)[C@H]3O)[C@H]3COC(=O)[C@H]23)OCO4)cc(OC)c1O [UM0141437:01, Etoposide]: not satisfied

As a next step, examine the compound that follows.
**Q:** Could you please find out whether `O=C(/C=C/c1ccc(O)c(O)c1)OCCc1ccccc1` has Inh (PKA) that meets 10% or exceeds it?
**A:** satisfied

* * *

# System: PRKACA-PRKAR2A interaction (SmBiT-PRKACA / LgBiT-PRKAR2A), protein kinase A
# Design: NanoLuc complementation counter-screen in cell extract, PRKACA with PRKAR2A, loss of luminescence, detects NanoLuc interference
# measurementContext: counter-screen for NanoLuc interference; 0.5 h, 20 µM; inhibitor
Counter-ions that a name gives are not always drawn. Numbered stars: 1 amine (or outer) side, 2 acyl side, 3 side chain; on linkers, the order of the positions; unused ones are H or OH. Bridge positions count the residues as written; N and C are the ends. Square brackets hold non-standard residues; d marks the D form. Peptide text beside a SMILES is read from it. * marks the point of attachment. pTerphenylCO(4''-OnC5H11) = CCCCCOc1ccc(-c2ccc(-c3ccc(C(=O)*)cc3)cc2)cc1; Orn(4R-OH,5R-OH) = O=C([C@H](C[C@@H](O)[C@@H](O)N[*:3])N[*:1])[*:2]; hTyr(3S-OH,4S-OH) = N[C@H](C(=O)O)[C@H](O)[C@@H](O)c1ccc(O)cc1; Pro(3S-OH,4S-Me) = C[C@H]1CN[C@H](C(=O)O)[C@H]1O; Hyp = O=C(O)[C@@H]1C[C@@H](O)CN1
I'd appreciate it if you could supply Inh (PKA) values for the items below.
Numbers only, in %.

Study these solved cases before continuing.
* CCCc1ncc(C[n+]2ccccc2C)c(N)n1 [UM0118750:03, Amprolium HCl] | -0.09679
* Cc1nc2n(c(=O)c1CCN1CCC(c3noc4cc(F)ccc34)CC1)CCCC2 [UM0134126:02, Risperidone] | 4.965
* Cc1ccc(C(=O)C(C)CN2CCCCC2)cc1 (centres unmarked) [UM0142383:01, Tolperisone HCl] | -1.099
* Cc1cnc(-c2cnc(NCCNc3ccc(C#N)cn3)nc2-c2ccc(Cl)cc2Cl)[nH]1 [UM0141499:01, CHIR-99021 (CT99021)] | 50.27
* COc1cc(C(=O)O)ccc1NC(=O)[C@@H]1N[C@@H](CC(C)(C)C)[C@](C#N)(c2ccc(Cl)cc2F)[C@H]1c1cccc(Cl)c1F [UM0141617:01, RG7388] | 51.62

# map each compound to its Inh (PKA)
1. O=c1ncn2nc(Sc3ccc(F)cc3F)ccc2c1-c1c(Cl)cccc1Cl [UM0142117:01, VX-745]
2. CC[C@H](Nc1ncnc2[nH]cnc12)c1nc2cccc(F)c2c(=O)n1-c1ccccc1 [UM0141495:01, CAL-101 (Idelalisib, GS-1101)]
3. N=C(N)SCCc1ccc(OCc2ccc([N+](=O)[O-])cc2)cc1 [UM0141571:01, KB-R7943 mesylate]
4. CC(C)[C@H](C(=O)Nc1ccc(C(=O)NO)cc1)c1ccccc1 [UM0141708:01, AR-42 (OSU-HDAC42)]
5. NCCCC[C@@H]1NC(=O)[C@@H](Cc2ccccc2)NC(=O)[C@H](CC(=O)O)NC(=O)CNC(=O)[C@H](CCCN=C(N)N)NC1=O [UM0141923:01, Cyclo (-RGDfK)]
6. Cc1coc2c1C(=O)C(=O)c1c-2ccc2c(C)cccc12 [UM0142857:01, Tanshinone I]
7. CC(C)(C)NCC(O)c1cc(O)cc(O)c1 (centres unmarked) [UM0142204:01, Terbutaline Sulfate]

**A:**
[8.434, 7.222, 7.839, 2.219, -1.971, 27.32, 1.128]

# map each compound to its Inh (PKA)
1. CCOC(=O)C1=C(C)NC(C)=C(C(=O)OC)C1c1cccc(Cl)c1Cl (centres unmarked) [UM0142246:01, Felodipine]
2. Cc1cc(Nc2ccc(NC(=O)c3ccc(Nc4ccnc5ccccc45)cc3)cc2)nc(N)n1 [UM0142330:01, SGI-1027]
3. Nc1ccc(O)c(C(=O)O)c1 [UM0119062:03, Mesalamine]
4. CC(c1cc2ccccc2s1)N(O)C(N)=O (centres unmarked) [UM0141885:01, Zileuton]

**A:**
[92.04, 9.462, 8.926, 2.302]

# map each compound to its Inh (PKA)
1. CCNC(=O)c1noc(-c2cc(C(C)C)c(O)cc2O)c1-c1ccc(CN2CCOCC2)cc1 [UM0141684:01, AUY922 (NVP-AUY922)]
2. Cc1c(O)cccc1C(=O)N[C@@H](CSc1ccccc1)[C@H](O)CN1C[C@H]2CCCC[C@H]2C[C@H]1C(=O)NC(C)(C)C [UM0141590:01, Nelfinavir Mesylate]
3. N#Cc1ccc2[nH]cc(CCCCN3CCN(c4ccc5oc(C(N)=O)cc5c4)CC3)c2c1 [UM0141561:04, Vilazodone Hydrochloride]
4. CN(C)CCc1c[nH]c2ccc(C[C@H]3COC(=O)N3)cc12 [UM0121308:03, Zolmitriptan]
5. CCCCCOc1ccc(-c2ccc(-c3ccc(C(=O)N[C@H]4C[C@@H](O)[C@@H](O)NC(=O)[C@@H]5[C@@H](O)[C@@H](C)CN5C(=O)[C@H]([C@@H](C)O)NC(=O)[C@H]([C@H](O)[C@@H](O)c5ccc(O)cc5)NC(=O)[C@@H]5C[C@@H](O)CN5C(=O)[C@H]([C@@H](C)O)NC4=O)cc3)cc2)cc1 [UM0142187:01, Anidulafungin] ({pTerphenylCO(4''-OnC5H11)}-[Orn(4R-OH,5R-OH)]T[Hyp][hTyr(3S-OH,4S-OH)]T[Pro(3S-OH,4S-Me)]; lactam 1-C)
6. O=C(O)Cn1nnc(-c2cc(N3CCC(Oc4cc(F)ccc4Br)CC3)no2)n1 [UM0141800:01, MK-8245]
7. COc1cc(-c2ncn(/C=C\C(=O)OC(C)C)n2)cc(C(F)(F)F)c1 [UM0142266:01, KPT-185]

**A:**
[15.87, 3.843, 10.91, -0.4605, 1.476, 15.63, 22.3]

# map each compound to its Inh (PKA)
1. CC1=C(O)C(=O)C=C2C1=CC=C1[C@@]2(C)CC[C@@]2(C)[C@@H]3C[C@](C)(C(=O)O)CC[C@]3(C)CC[C@]12C [UM0133421:02, Celastrol]
2. CN1CCN(C(=O)c2ccc3cc(CCNc4ncnc5ccc(C#N)cc45)ccc3c2)CC1 [UM0142129:01, Senexin B]
3. CNC(=O)c1ccc(N2C(=S)N(c3cnc(C#N)c(C(F)(F)F)c3)C(=O)C23CCC3)cc1F [UM0142016:01, ARN-509]

**A:**
1: 15.02; 2: 3.385; 3: 2.375
